system: K562; assay: ATP ViaLight plus cell viability assay; type: cell-based, Human; settings: Homo sapiens, K562, 72 h
quantity: pIC50
Reminder that pIC50 means the negative base-10 logarithm of the concentration expressed in mol/L.

Exercise: Give the measured pIC50 for CCOC(=O)CCc1ccccc1OP(=O)(N[C@@H](C)C(=O)OCc1ccccc1)OC[C@@H]1C[C@@H](O)[C@H](n2cnc3c(N)ncnc32)O1 (stereo partly shown)
Solution: 5.20

---

M.I. %: maximum percentage inhibition of cell viability values for the compounds below.
tested on: CCRF-CEM; experiment: CellTiterGlo cell viability assay, initial screening; type: cell-based; details: CCRF-CEM; 72 hr; Table II
API: value field is a number in %; no unit string.

>  <compound>
CCOC(=O)CCc1ccccc1OP(=O)(N[C@@H](C)C(=O)OCc1ccccc1)OC[C@@H]1C[C@@H](O)[C@H](n2cnc3c(N)ncnc32)O1 (stereo partly shown)

>  <units of measure>
%

>  <quantitative result>
99

$$$$
>  <compound>
C[C@H](NP(=O)(Oc1ccccc1)O[C@@H]1C[C@@H](CO)O[C@H]1n1cnc2c(N)ncnc21)C(=O)OCc1ccccc1 (stereo partly shown)

>  <units of measure>
%

>  <quantitative result>
65

$$$$
>  <compound>
COC(=O)C(C)(C)NP(=O)(OC[C@@H]1C[C@@H](O)[C@H](n2cnc3c(N)ncnc32)O1)Oc1cccc2ccccc12 (stereo partly shown)

>  <units of measure>
%

>  <quantitative result>
90

$$$$

In the following, a different compound is considered.
Exercise: Provide measured M.I. %: maximum percentage inhibition of cell viability on CCRF-CEM for Nc1ncnc2c1ncn2[C@@H]1O[C@H](COP(=O)(NCC(=O)OCc2ccccc2)Oc2ccccc2)C[C@H]1O (stereo partly shown) please.
Solution: 94
